Numbers sourced from paper PMC6082395.

# MEASUREMENT_TARGET: KIX domain of human CBP (residues 586–672) (human, UniProt Q92793 586-672)
# Sequence (Q92793 586-672): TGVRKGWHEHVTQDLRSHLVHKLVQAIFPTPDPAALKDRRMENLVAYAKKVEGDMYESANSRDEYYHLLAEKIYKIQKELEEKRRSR
# ASSAY_DETAILS: ITC
ENDPOINT: Kd (nM)

BINDER	ENDPOINT	DATA_VALUE
c-Myb TAD E292D (domain or fragment, human, UniProt P10242 275-327, looked up) PAAAAIQRHYNDEDPEKDKRIKELELLLMSTENELKGQQVLPTQNHTCSYPGW	Kd	630
c-Myb TAD K293H (domain or fragment, human, UniProt P10242 275-327, looked up) PAAAAIQRHYNDEDPEKEHRIKELELLLMSTENELKGQQVLPTQNHTCSYPGW	Kd	780
c-Myb TAD N307G (domain or fragment, human, UniProt P10242 275-327, looked up) PAAAAIQRHYNDEDPEKEKRIKELELLLMSTEGELKGQQVLPTQNHTCSYPGW	Kd	610
c-Myb TAD K296H (domain or fragment, human, UniProt P10242 275-327, looked up) PAAAAIQRHYNDEDPEKEKRIHELELLLMSTENELKGQQVLPTQNHTCSYPGW	Kd	870
c-Myb TAD P289A (domain or fragment, human, UniProt P10242 275-327, looked up) PAAAAIQRHYNDEDAEKEKRIKELELLLMSTENELKGQQVLPTQNHTCSYPGW	Kd	620
c-Myb TAD N307V (domain or fragment, human, UniProt P10242 275-327, looked up) PAAAAIQRHYNDEDPEKEKRIKELELLLMSTEVELKGQQVLPTQNHTCSYPGW	Kd	390

P: c-Myb TAD L300G (domain or fragment, human, UniProt P10242 275-327, looked up) PAAAAIQRHYNDEDPEKEKRIKELEGLLMSTENELKGQQVLPTQNHTCSYPGW
Q: c-Myb TAD S304A (domain or fragment, human, UniProt P10242 275-327, looked up) PAAAAIQRHYNDEDPEKEKRIKELELLLMATENELKGQQVLPTQNHTCSYPGW
R: c-Myb TAD L300P (domain or fragment, human, UniProt P10242 275-327, looked up) PAAAAIQRHYNDEDPEKEKRIKELEPLLMSTENELKGQQVLPTQNHTCSYPGW
S: c-Myb TAD L300V (domain or fragment, human, UniProt P10242 275-327, looked up) PAAAAIQRHYNDEDPEKEKRIKELEVLLMSTENELKGQQVLPTQNHTCSYPGW
T: c-Myb TAD S304V (domain or fragment, human, UniProt P10242 275-327, looked up) PAAAAIQRHYNDEDPEKEKRIKELELLLMVTENELKGQQVLPTQNHTCSYPGW
Returns the items ordered by Kd, from maximum to minimum. Put the labels in the requested order and write them down.
R, P, T, S, Q
(R: 290000 nM, P: 2240 nM, T: 1490 nM, S: 820 nM, Q: 380 nM)
